Measured values drawn from PubChem BioAssay AID623993 for this set.

# System: PvdQ acyl-homoserine lactone acylase (Pseudomonas aeruginosa LESB58)
# Assay procedure: inhibition of P. aeruginosa PvdQ enzyme – biochemical, 4-MU laurate fluorescence, dry powder, set 4, dose response (AID 623993)
# Conditions: purified PvdQ, 4-MU laurate hydrolysis fluorescence
Consider the following compounds; for each one, report its AC50.

COCCC(C#N)c1ccc(Cl)cc1 (configuration not stated): 3470 nM
N#CC(c1ccc(Cl)cc1)c1cccc(C(F)(F)F)n1 (configuration not stated): 23.6 nM
N#Cc1cccc(C(C#N)c2ccc(F)cc2)n1 (configuration not stated): 140 nM
N#CC(c1ccc(F)cc1)c1cccc(C(F)(F)F)n1 (configuration not stated): < 3 nM
N#CC(c1ccc(C(F)(F)F)c(Cl)n1)c1ccccc1OC(F)(F)F (configuration not stated): 15200 nM

Give me AC50 for each of these compounds, listed below.
1. N#CC(c1ccc(Cl)cc1)c1ccccn1 (configuration not stated)
2. COCCOCCC(C#N)c1ccc(Cl)cc1 (configuration not stated)
3. N#CC(c1cccc(C(F)(F)F)n1)c1ccc(Cl)cc1F (configuration not stated)
4. COCCOCCC(C#N)c1ccc(F)cc1 (configuration not stated)
5. CN(C)CCCC(C#N)c1ccc(F)cc1 (configuration not stated)
6. CCCCC(C#N)c1ccc(Cl)cc1 (configuration not stated)
7. N#CC(c1cccc(Cl)n1)c1ccc(Cl)cc1F (configuration not stated)

Result:
1: 212 nM; 2: 7070 nM; 3: < 3 nM; 4: 177 nM; 5: 273 nM; 6: 412 nM; 7: 7.66 nM

Give me AC50 for each of these compounds, listed below.
1. N#CC(c1ccc(F)cc1)c1cccc(Cl)n1 (configuration not stated)
2. N#CC(c1ccc(Cl)cc1)N1CCCC1 (configuration not stated)
3. CN(C)CCCC(C#N)c1ccc(Cl)cc1 (configuration not stated)
4. CCCCC(C#N)c1ccc(F)cc1 (configuration not stated)

Result:
108 nM
786 nM
14500 nM
412 nM

Give me AC50 for each of these compounds, listed below.
1. N#CC1c2ccc(Cl)cc2CCc2cccnc21 (configuration not stated)
2. CCCCC(C#N)c1ccc(Cl)cn1 (configuration not stated)
3. N#CC(c1ccc(Cl)cc1)c1cccc(Cl)n1 (configuration not stated)
4. CCCCC(c1ccc(Cl)cc1)c1nn[nH]n1 (configuration not stated)
5. COCCC(C#N)c1ccc(F)cc1 (configuration not stated)
6. N#CC(c1ccc(Cl)cc1)c1ncccc1Cl (configuration not stated)

Result:
1: 3510 nM; 2: 1630 nM; 3: 49.1 nM; 4: 3530 nM; 5: 530 nM; 6: 3.01 nM
